Experiment: Solubility of compound in SGF
Assay type: physicochemical
value_kind: solubility

Some solved entries appear below for comparison.
smiles=Cc1cc(C(O)(C(F)(F)F)C(F)(F)F)ccc1-c1sc(C(=O)NCC(C)(C)O)nc1C(=O)N1CCC[C@@H]1C obs_value="63 µM"
smiles=C[C@H]1CCCN1C(=O)c1nc(C(=O)NCC(C)(C)O)sc1-c1ccc(C(O)(C(F)(F)F)C(F)(F)F)cc1C(F)F obs_value="22 µM"
smiles=C[C@H]1CCCCN1C(=O)c1nc(C(=O)NCC(C)(C)O)sc1-c1ccc(C(O)(C(F)(F)F)C(F)(F)F)cc1Cl obs_value="< 4 µM"
smiles=C[C@H]1CCCN1C(=O)c1nc(C(=O)NCC(C)(C)O)sc1-c1ccc(C(O)(C(F)(F)F)C(F)(F)F)c(Cl)c1Cl obs_value="< 4 µM"
smiles=Cc1cc(C(O)(C(F)(F)F)C(F)(F)F)ccc1-c1sc(C(=O)NCC(C)(C)O)nc1C(=O)N1CCCC[C@@H]1C obs_value="< 4 µM"

Provide reported solubility for each item, in the same order as listed.
1. C[C@H]1CCCN1C(=O)c1nc(C(=O)NCC(C)(C)O)sc1-c1ccc(C(O)(C(F)(F)F)C(F)(F)F)cc1Cl
2. C[C@H]1CCCCN1C(=O)c1nc(C(=O)NCC(C)(C)O)sc1-c1ccc(C(O)(C(F)(F)F)C(F)(F)F)cc1C(F)F

["6.3 µM", "< 4 µM"]
